procedure details: Caco-2 assay (permeability PappAB, PappBA, efflux ratio)
Format: in vitro ADME
measurement context: human, Caco-2; efflux ratio PappBA/PappAB; 10 μM test compound, pH 7.4; read-out: Caco ER
Method: The assay provides information on the potential of a compound to pass the cell membrane, on the extent of oral absorption as well as on whether the compound is actively transported by uptake and/or efflux transporters. […] Concentrations of test compounds in samples were measured by HPLC/MS/MS, samples from the donor compartment were diluted 1:50 (v:v) with assay buffer, samples from receiver compartment were measured without dilution. […]
property name: efflux ratio at 90 min, 10 μM
In your answer, state the number alone without any accompanying words.

Recorded efflux ratio at 90 min, 10 μM, per entry:
In [3]: df
Out[3]:
                               input_smiles                  property_name  quantitative_result
0  C[C@H](Oc1cc(-c2ccn(C[C@H]3CCOC3)n2)nc(-c2noc3c2CCC[C@@]32CCCc3sc(N)c(C#N)c32)n1)[C@@H]1CCCN1C  efflux ratio at 90 min, 10 μM                  5.2
1  C[C@H](Oc1cc(-c2ccccn2)nc(-c2noc3c2CCC[C@@]32CCCc3sc(N)c(C#N)c32)n1)[C@@H]1CCCN1C  efflux ratio at 90 min, 10 μM                  1.2
2  C[C@H](Oc1cc(-n2ccc(-c3cnccn3)n2)nc(-c2noc3c2CCC[C@@]32CCCc3sc(N)c(C#N)c32)n1)[C@@H]1CCCN1C  efflux ratio at 90 min, 10 μM                  1.4
3  C[C@H](Oc1cc(N2CCNC3(CCC3)C2)nc(-c2onc3c2CCC[C@@]32CCCc3sc(N)c(C#N)c32)n1)[C@@H]1CCCN1C  efflux ratio at 90 min, 10 μM                 20.8
4  C[C@H](Oc1cc(-n2ccc(C(=O)N[C@@H]3CCOC3)n2)nc(-c2noc3c2CCC[C@@]32CCCc3sc(N)c(C#N)c32)n1)[C@@H]1CCCN1C  efflux ratio at 90 min, 10 μM                  2.5
5  C[C@H](Oc1cc(N2CCN(C)C3(CC3)C2)nc(-c2noc3c2CCC[C@@]32CCCc3sc(N)c(C#N)c32)n1)[C@@H]1C[C@@H](F)CN1C  efflux ratio at 90 min, 10 μM                  1.2
6  C[C@H](Oc1cc(-c2ccn(C[C@@H](C)O)n2)nc(-c2onc3c2CCC[C@@]32CCCc3sc(N)c(C#N)c32)n1)[C@@H]1CCCN1C  efflux ratio at 90 min, 10 μM                 18.5
7  COCCNC(=O)c1ccn(-c2cc(O[C@@H](C)[C@@H]3CCCN3C)nc(-c3noc4c3CCC[C@@]43CCCc4sc(N)c(C#N)c43)n2)n1  efflux ratio at 90 min, 10 μM                  4.5
8  C[C@H](Oc1cc(-c2ccn(C3CC3)n2)nc(-c2noc3c2CCC[C@@]32CCCc3sc(N)c(C#N)c32)n1)[C@@H]1CCCN1C  efflux ratio at 90 min, 10 μM                  1.5
9  CO[C@@H]1C[C@@H]([C@H](C)Oc2cc(N3CCNC4(CC4)C3)nc(-c3noc4c3CCC[C@@]43CCCc4sc(N)c(C#N)c43)n2)N(C)C1  efflux ratio at 90 min, 10 μM                  4.6

q: Entry C[C@H](Oc1cc(-n2ccnc2)nc(-c2onc3c2CCC[C@@]32CCCc3sc(N)c(C#N)c32)n1)[C@@H]1CCCN1C needs its efflux ratio at 90 min, 10 μM filled in; supply it.
a: 4.9

q: Entry C[C@H](Oc1cc(-n2cnc(C(=O)N(C)C)c2)nc(-c2noc3c2CCC[C@@]32CCCc3sc(N)c(C#N)c32)n1)[C@@H]1CCCN1C needs its efflux ratio at 90 min, 10 μM filled in; supply it.
a: 11
